target: HLA-B*15:01; assay: IEDB peptide-MHC binding, purified MHC/direct/fluorescence; filed as Kd, often an IC50 or EC50 that approximates it; bounds were set here for any values at or beyond the usual limits of such assays; details: source organism: Escherichia coli
Readout Type: pKd
pKd is a log-scale quantity: -log10 of the concentration expressed in molar.

Exercise: Value lookup for pKd; key = `AQRPAKYSY`
Key: 6.88

====

biological target: HLA-A*02:01; assay: IEDB peptide-MHC binding, purified MHC/competitive/fluorescence; filed as Kd, often an IC50 or EC50 that approximates it; bounds were set here for any values at or beyond the usual limits of such assays; details: source organism: Vibrio antiquarius
Readout Type: Kd

Exercise: Request: Kd, test system HLA-A*02:01, entry `SLTIPSFYT`
Key: ≥ 20 µM
